Target: FMRP RGG domain (Mus musculus, UniProt P35922 478-614)
Test: fluorescence polarization; 150 mM KCl; FP: 10 mM Tris-HCl (pH not stated), 150 mM KCl or LiCl, 5% glycerol, 10 nM RNA, protein 2 nM-1 uM, 5 min at 25 C, read at 26-27 C
Details: protein: recombinant; tags: GST-SBP (N-terminal, pGEX6); label: 3' 6-FAM; G4 intramolecular (folded in KCl)
pKd: −log10 of the molar value.
reported_endpoint: pKd

Exam item: // query pKd value for entry GGGAGGGAGGGAGGGUA (structured_RNA) [rG4]
Marked response: ~7.52
